Tested on: CEM cells HIV-1 protection, formazan growth assay
Experiment: NCI AIDS Antiviral Assay
experimental.readout: EC50

[ask] Requested field: EC50. Item: Cc1cc(C#N)c(=S)n(C2OC(CO)C(O)C(O)C2O)c1C (stereo unspecified)
[reply] > 200 µM

[ask] Check Cc1cccc(C(C)(C)C)c1NC(=O)C(C#N)C1=C(Cl)C(=O)c2ccccc2C1=O (stereo unspecified) too.
[reply] > 107 µM

[ask] Record: O=C(Nc1ccc(Cl)cc1C(F)(F)F)C(=O)Nn1c(=S)[nH]c2ccccc2c1=O
[reply] > 151 µM

[ask] Ok, now C=C1CCC[C@@H]2[C@@](C)(Cc3cc(O)ccc3O)C(C)CC[C@]12C (stereo partly specified)
[reply] > 60.3 µM

[ask] Likewise for O=S(=O)(Sc1ccc(Cl)cc1)c1ccc(Cl)cc1 ?
[reply] > 20 µM

[ask] Now the same for O=C(N/N=C(\c1nc2ccc(Cl)cc2[nH]c1=O)C(O)c1ccccc1Cl)c1ccncc1 (stereo unspecified)
[reply] > 537 µM

[ask] Another molecule: OC1C#CCSCC#C/C=C\1 (stereo unspecified)
[reply] > 200 µM

[ask] Now this one: O=C1C2Cc3ccccc3CN2C(=O)N1CN1CCN(CN2C(=O)C3Cc4ccccc4CN3C2=O)CC1 (stereo unspecified)
[reply] > 10 µM

[ask] Check O=C(O)CN1CCN2CCCCCN(CC1)CCN(CC(=O)O)CC2 too.
[reply] > 200 µM

[ask] Field entry: c1ccc2nn(C3CCCO3)nc2c1 (stereo unspecified)
[reply] > 200 µM

[ask] Now try Nc1nc(Cl)c(N=Nc2ccc(Cl)cc2)c(NCC2(CO)CC2)n1 .
[reply] > 200 µM
